This section presents sequences with their documented PBM binding z-score values.
tested on: RARg:RXRa (NR concentration 270 nM, RXRa partner concentration 90 nM); assay: PBM binding z-score (relative to random genomic background probes); higher = stronger binding; sequences stand for … in GC…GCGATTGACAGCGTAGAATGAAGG
ATTRIBUTE MEASURED: PBM binding z-score

- SEQUENCE STRING: "GCTAGTTGGTCAGTAAAAGGTCACAGACCGGTCG"
  ASSAYED SYSTEM: "RARg:RXRa (NR concentration 270 nM, RXRa partner concentration 90 nM)"
  ATTRIBUTE MEASURED: "PBM binding z-score"
  TEST RESULT: 5.64
- SEQUENCE STRING: "AGCACGAGGGCAATGAGTTGATAGCACGGGTGGC"
  ASSAYED SYSTEM: "RARg:RXRa (NR concentration 270 nM, RXRa partner concentration 90 nM)"
  ATTRIBUTE MEASURED: "PBM binding z-score"
  TEST RESULT: 1.16
- SEQUENCE STRING: "GCGACTGGGGCATCAGCAGTTTACCATAACTTAA"
  ASSAYED SYSTEM: "RARg:RXRa (NR concentration 270 nM, RXRa partner concentration 90 nM)"
  ATTRIBUTE MEASURED: "PBM binding z-score"
  TEST RESULT: 0.124
- SEQUENCE STRING: "TCAAATAGGTAAATGCTAGGTGAAAGTCCGATCT"
  ASSAYED SYSTEM: "RARg:RXRa (NR concentration 270 nM, RXRa partner concentration 90 nM)"
  ATTRIBUTE MEASURED: "PBM binding z-score"
  TEST RESULT: 0.401
- SEQUENCE STRING: "TCATATAGTTAAAAGGTGAAAGTCGGTGTGGTAA"
  ASSAYED SYSTEM: "RARg:RXRa (NR concentration 270 nM, RXRa partner concentration 90 nM)"
  ATTRIBUTE MEASURED: "PBM binding z-score"
  TEST RESULT: 1.69
- SEQUENCE STRING: "CATCGGAGGACAGAAGGTCAGAGCTGTCCGCTTT"
  ASSAYED SYSTEM: "RARg:RXRa (NR concentration 270 nM, RXRa partner concentration 90 nM)"
  ATTRIBUTE MEASURED: "PBM binding z-score"
  TEST RESULT: 3.28
- SEQUENCE STRING: "CCAGACGGGTGAAAGGTAACTCAGTCTGGTACGC"
  ASSAYED SYSTEM: "RARg:RXRa (NR concentration 270 nM, RXRa partner concentration 90 nM)"
  ATTRIBUTE MEASURED: "PBM binding z-score"
  TEST RESULT: 0.694
- SEQUENCE STRING: "CCGACTGGGGCAGGGTTACCATAACGCACAGCCA"
  ASSAYED SYSTEM: "RARg:RXRa (NR concentration 270 nM, RXRa partner concentration 90 nM)"
  ATTRIBUTE MEASURED: "PBM binding z-score"
  TEST RESULT: 0.693
- SEQUENCE STRING: "TCTTGGAGGACACGAAGGTCAGAGCTTTCCAGAG"
  ASSAYED SYSTEM: "RARg:RXRa (NR concentration 270 nM, RXRa partner concentration 90 nM)"
  ATTRIBUTE MEASURED: "PBM binding z-score"
  TEST RESULT: 3.23
- SEQUENCE STRING: "ATCGAAAGGTAGAGGTGAGTATAGAGAAAGGGAA"
  ASSAYED SYSTEM: "RARg:RXRa (NR concentration 270 nM, RXRa partner concentration 90 nM)"
  ATTRIBUTE MEASURED: "PBM binding z-score"
  TEST RESULT: 0.75
- SEQUENCE STRING: "ATAGGTAGGTTAGCTGGGGTCATTCAGACTAGGC"
  ASSAYED SYSTEM: "RARg:RXRa (NR concentration 270 nM, RXRa partner concentration 90 nM)"
  ATTRIBUTE MEASURED: "PBM binding z-score"
  TEST RESULT: 4.35
- SEQUENCE STRING: "CCTACTGGGCCACGAAAGCTCATTGATTCAGTGA"
  ASSAYED SYSTEM: "RARg:RXRa (NR concentration 270 nM, RXRa partner concentration 90 nM)"
  ATTRIBUTE MEASURED: "PBM binding z-score"
  TEST RESULT: -0.286
